Each recorded value in this set is attributed to PubChem BioAssay (NCI).

system: RPMI-8226 leukemia; test: NCI tumour cell line growth inhibition, 48 h
Property: TGI

| Molecule | Experimental target | Test result |
| --- | --- | --- |
| O=C(c1cccs1)N(C(=O)N1CCCCC1)c1ccccc1 | RPMI-8226 leukemia | > 100 µM |
| C/C(=C\COc1ccc2ccc(=O)oc2c1)CCC(=O)C(C)(C)O | RPMI-8226 leukemia | 50 µM |
| CC1=CCC(=O)[C@]2(C)C(CC(=O)O)[C@]3(C)C4=C(C)C(c5ccoc5)C[C@@H]4O[C@@H]3[C@H](O)[C@@H]12 (stereo partly drawn) | RPMI-8226 leukemia | > 100 µM |
